Tested on: UACC-257 melanoma
Protocol text: NCI tumour cell line growth inhibition, 48 h
Please provide measured TGI for the entries that follow.
Number in µM, nothing else.

Q: Please look up its TGI: CCCC1=C(OC)C(=O)c2c(C)cc(Cl)nc2C1=O
A: 19.7

Q: Please look up its TGI: O=c1c2ccccc2oc2ccccc12 (tested in a mixture with another compound)
A: 9.31

Q: Please look up its TGI: COc1cc(OC)c2c(=O)cc(-c3ccccc3OCc3ccccc3)oc2c1OC
A: 82.1

Q: Please look up its TGI: CCC1=C(C[C@H]2NCCc3cc(OC)c(OC)cc32)C[C@H]2c3cc(OC)c(OC)cc3CCN2C1
A: 0.365

###

Please provide measured TGI for the entries that follow.
Tested on: HCC-2998 colon
Protocol text: NCI tumour cell line growth inhibition, 48 h

Q: Record lookup: for HCC-2998 colon, what TGI belongs to COc1ccc(Br)c(CN2CCc3ccccc32)c1OS(=O)(=O)c1ccc(C)cc1 ?
A: > 100 µM

Q: Record lookup: for HCC-2998 colon, what TGI belongs to COc1ccc2nc(C)cc(Sc3nc4ccccc4s3)c2c1 ?
A: 2.54 µM

Q: Record lookup: for HCC-2998 colon, what TGI belongs to Cc1cc2c(c(C(=O)NCC(=O)O)c1)Oc1c(cc(C)cc1C(=O)NCC(=O)O)S2 ?
A: > 100 µM

###

Please provide measured TGI for the entries that follow.
Test system: HT29 colon
Protocol text: NCI tumour cell line growth inhibition, 48 h
Where a SMILES comes first, the peptide text is derived from it. [ ]: non-standard residue; d: D form. The star is where a group is joined. Phe(4-NO2) = N[CH](Cc1ccc([N+](=O)[O-])cc1)C(=O)O; Boc = CC(C)(C)OC(=O)*

Q: Please look up its TGI: N/N=C(/N)SCCCCCCCCCCS/C(N)=N/N
A: 27.7 µM

Q: Please look up its TGI: O=c1[nH]c2ccccc2c(O)c1/C=N/C(=S)NC1CCCCC1
A: > 100 µM

Q: Please look up its TGI: COc1cc2c(cc1OC)C(C(CBr)CBr)N(C1CCCC1)CC2 (stereo not drawn)
A: > 100 µM

Q: Please look up its TGI: CC/C=C/c1cc2c(cc1O)CCC1C2CC[C@@]2(C)C1CC[C@@H]2O (stereo partly drawn)
A: 21.1 µM

Q: Please look up its TGI: O=C1CC(C2(O)C(=O)Nc3ccc([N+](=O)[O-])cc32)c2ccccc21 (stereo not drawn)
A: 62.7 µM

Q: Please look up its TGI: O=c1[nH]n(CCc2ccccc2CCl)c2ccc([N+](=O)[O-])cc12
A: > 100 µM

Q: Please look up its TGI: COC1=C(OC)C(=O)C(C/C=C(\C)CC/C=C(\C)CC/C=C(\C)CC/C=C(\C)CC/C=C(\C)CC/C=C(\C)CC/C=C(\C)CC/C=C(\C)CC/C=C(\C)CCC=C(C)C)=C(C)C1=O
A: > 100 µM

Q: Please look up its TGI: O=C(c1ccccc1)c1nnn(Cc2ccccc2Cn2nnc(C(=O)c3ccccc3)c2C(=O)c2ccccc2)c1C(=O)c1ccccc1
A: > 100 µM

Q: Please look up its TGI: CN(C)CCN1C(=O)c2cccc3c(/C=C/CN4C(=O)c5cccc6cccc(c56)C4=O)ccc(c23)C1=O
A: > 100 µM

Q: Please look up its TGI: COc1ccc(OC)c2c(C)ccnc12
A: > 100 µM

Q: Please look up its TGI: Cc1nn(C)c2ncnc(N/N=C/c3cccc(O)c3O)c12
A: > 100 µM

Q: Please look up its TGI: Cc1c(Nc2nccc3cc(CN4CC[C@@H](O)C4)cnc23)cccc1-c1cccc(-c2nc3cc(CN4CC[C@@H](C(=O)O)C4)cc(C#N)c3o2)c1C
A: 4.64 µM

Q: Please look up its TGI: CC(=O)OCC1OC(n2c(=O)[nH]c(=O)c3n[nH]nc32)C(OC(C)=O)C(OC(C)=O)C1OC(C)=O (stereo not drawn)
A: > 100 µM

Q: Please look up its TGI: CCC[CH2][Sn]([CH2]CCC)([CH2]CCC)/[C](=C/[Si](C)(C)c1ccccc1)c1ccc2c(c1)OCO2
A: 55.3 µM

Q: Please look up its TGI: O=C(O)c1c2c(cc3c(=O)c4ccccc4[nH]c13)CCCC2
A: > 100 µM

Q: Please look up its TGI: O=C1C(Cl)=C(Cl)C(=O)N1c1ccc(Cl)c(Cl)c1Cl
A: > 100 µM

Q: Please look up its TGI: C=CCC12CC(=O)CCC1c1ccc(OC)cc1C2=O (stereo not drawn)
A: > 100 µM

Q: Please look up its TGI: CCOC(=O)CCC(NC(=O)C(Cc1ccc([N+](=O)[O-])cc1)NC(=O)OC(C)(C)C)C(=O)NC(CCC(=O)OCC)C(=O)OCC (stereo not drawn) (Boc-[Phe(4-NO2)]-Glu(OEt)-Glu(OEt)-OEt; configuration not given here)
A: 31.5 µM

###

Please provide measured TGI for the entries that follow.
System: HCC-2998 colon
Protocol text: NCI tumour cell line growth inhibition, 48 h

Q: Please look up its TGI: COc1ccc(C2NN=C3c4ccccc4CCC32)cc1 (stereo unspecified)
A: > 100 µM

Q: Please look up its TGI: CN(C)C=N[C@@H](C(=O)O)c1ccccc1
A: > 100 µM

Q: Please look up its TGI: O=C1c2ccccc2C2(c3ccc(F)cc3)NCCN12 (stereo unspecified)
A: > 100 µM

Q: Please look up its TGI: COc1ccc(N2C(=O)[C@@H](N=[N+]=[N-])[C@@H]2[C@H]2COC(C)(C)O2)cc1
A: > 100 µM

Q: Please look up its TGI: c1cc2cc3c4c5c(cc6ccc7cc8cc9c%10c8c8c7c6c5c8c5c%10c(c1C9N1CCOCCOCCOCCOCCOCC1)c2c45)C3 (stereo unspecified)
A: > 100 µM

Q: Please look up its TGI: O=c1cc(N2CCOCC2)n2c(ccc3ccccc32)n1
A: > 100 µM

Q: Please look up its TGI: CC(C)[P+](c1ccccc1)(c1ccccc1)c1ccccc1
A: > 100 µM

Q: Please look up its TGI: O=[N+]([O-])c1cc(/C=N\NS(=O)(=O)c2ccc(Cl)cc2)c(O)c([N+](=O)[O-])c1
A: > 100 µM

Q: Please look up its TGI: C/C(=N\Nc1nc2ccccc2[nH]1)c1ncccn1
A: > 100 µM

Q: Please look up its TGI: Oc1c(Cl)cc2cc1-c1cc(cc(Cl)c1O)CCc1c(cc(Cl)c(O)c1Cl)-c1cc(Cl)c(c(Cl)c1O)/C=C\2
A: 13.9 µM

Q: Please look up its TGI: CC(/C=C/C(=O)c1sc(C(N)=S)nc1C)=C\c1ccccc1
A: > 100 µM

###

Test system: SNB-19 CNS
Protocol text: NCI tumour cell line growth inhibition, 48 h; in the data active = GI50 below about 0.43 µM; inactive = the rest
Bench note: report the call from active, inactive

Q: Hello, I am checking results. What call was entered for COC1=C(OC)C(=O)C(C/C=C(\C)CC/C=C(\C)CC/C=C(\C)CC/C=C(\C)CC/C=C(\C)CC/C=C(\C)CC/C=C(\C)CC/C=C(\C)CC/C=C(\C)CCC=C(C)C)=C(C)C1=O ?
A: inactive

Q: Hello, I am checking results. What call was entered for Fc1ccc2c(c1)C1=C(CCC2)C(c2ccc(Cl)cc2)NC(=S)N1 (configuration not stated) ?
A: inactive

Q: Hello, I am checking results. What call was entered for CCC[CH2][Sn]([CH2]CCC)([CH2]CCC)/[C](=C/[Si](C)(C)c1ccccc1)c1ccc2c(c1)OCO2 ?
A: inactive

Q: Hello, I am checking results. What call was entered for O=C(Nc1ccc(-n2cc(-c3ccncc3)c(-c3ccc(O)c(Cl)c3)n2)cc1)c1ccc(Cl)c(C(F)(F)F)c1 ?
A: inactive

Q: Hello, I am checking results. What call was entered for CC(C)C[C@H](NC(=O)Cn1cccc(CNC(=O)c2ccccc2)c1=O)B(O)O ?
A: inactive

Q: Hello, I am checking results. What call was entered for COc1ccc(Nc2ncnc3ccc(-c4cncc(NS(C)(=O)=O)c4)cc23)cc1Cl ?
A: inactive

Q: Hello, I am checking results. What call was entered for C=C(C(=O)OC)[C@@H]1CC2OC1C(=O)C(C)CCC/C(C)=C/CC[C@@]2(C)O (some centres not stated) ?
A: inactive

Q: Hello, I am checking results. What call was entered for NC1=NC(SCc2ccccc2CCl)c2ncn(Cc3ccccc3CCl)c2N1 (configuration not stated) ?
A: inactive

Q: Hello, I am checking results. What call was entered for COc1ccc2nc(C)cc(Sc3nc4ccccc4s3)c2c1 ?
A: inactive

Q: Hello, I am checking results. What call was entered for C=CC1C(CC2OC(CO)C(O)C(O)C2O)OC=C2C(=O)OCCC21O (configuration not stated) ?
A: inactive

Q: Hello, I am checking results. What call was entered for Cc1ccc2oc(=O)c3c(O)c4cccc(OC5OC(C)C6O[C@@H](c7ccccc7)OC6C5OC5OC(C)C(O)C(O)C5O)c4c4oc(=O)c1c2c34 (some centres not stated) ?
A: active

Q: Hello, I am checking results. What call was entered for Nc1c(C(=O)c2cccc(C(O)CO)c2)cnn1-c1ccc(F)cc1 (configuration not stated) ?
A: inactive

Q: Hello, I am checking results. What call was entered for O=c1cc(-c2ccccc2)[nH]c2c1CCCC2 ?
A: inactive

Q: Hello, I am checking results. What call was entered for Cc1nc(NS(=O)(=O)c2ccc(NCN3C(=O)c4ccccc4C3=O)cc2)oc1C ?
A: inactive

Q: Hello, I am checking results. What call was entered for CN1CCN(C(=O)c2ccc(NC(=O)Nc3ccc(-c4nc(N5CCOCC5)c5cccn5n4)cc3)cc2)CC1 ?
A: active

Q: Hello, I am checking results. What call was entered for FC(F)c1ncc(-c2ccc(C(F)(F)F)cc2)c(NC2CCCCCC2)n1 ?
A: inactive

Q: Hello, I am checking results. What call was entered for CC(C)=Cc1cc(C)c2ccc(C)c3c2c1C(C)=C(O)C3=O ?
A: inactive
